Test system: HMM-mfMSR1 (monkey MSR1 extracellular domain)
Sequence (as listed by the source): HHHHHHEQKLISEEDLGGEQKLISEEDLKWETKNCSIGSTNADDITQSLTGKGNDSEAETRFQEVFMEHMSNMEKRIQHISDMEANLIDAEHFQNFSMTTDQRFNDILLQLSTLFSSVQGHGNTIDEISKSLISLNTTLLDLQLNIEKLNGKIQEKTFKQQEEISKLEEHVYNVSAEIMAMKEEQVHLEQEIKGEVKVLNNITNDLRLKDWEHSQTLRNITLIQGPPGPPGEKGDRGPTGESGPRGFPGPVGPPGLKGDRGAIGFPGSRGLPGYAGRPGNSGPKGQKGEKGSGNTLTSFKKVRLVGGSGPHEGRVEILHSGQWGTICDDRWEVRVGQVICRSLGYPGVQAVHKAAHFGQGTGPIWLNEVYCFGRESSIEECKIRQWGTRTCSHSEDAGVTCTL
procedure summary: Biacore surface plasmon resonance binding kinetics of anti-MSR1 mAbs, antibody-capture format
condition: 37° C.; analyte HMM-mfMSR1; dissociative half-life; NB = no binding observed
Each entry below carries its recorded t½.
Kindly provide the numeric value in h only, without the unit symbol.

H1H21227N: "anti-MSR1 antibodies ... (21227N, 21231N, 21234N) were produced with the original human Fcγ portion"; "H1H" = human IgG1 Fc (antibody, V domains shown, human IgG1 Fc, "anti-MSR1 antibodies ; (21227N, 21231N, 21234N) were produced with the original human Fcγ portion"; "H1H" = human IgG1 Fc) VH: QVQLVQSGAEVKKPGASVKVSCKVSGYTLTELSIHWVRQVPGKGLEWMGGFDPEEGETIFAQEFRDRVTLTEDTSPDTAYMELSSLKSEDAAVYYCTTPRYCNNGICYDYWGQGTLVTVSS VL: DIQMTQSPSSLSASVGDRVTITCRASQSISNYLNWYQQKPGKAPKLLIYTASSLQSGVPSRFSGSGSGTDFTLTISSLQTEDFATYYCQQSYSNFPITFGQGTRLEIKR :: 19.25

Shift focus to the following entry.
Q: Which t½ is listed for H1H21231N-N297Q: modified version of "21231N (H1H21231N-N297Q) anti-MSR1 antibodies" with "a N297Q single point mutation" (antibody, V domains shown) VH: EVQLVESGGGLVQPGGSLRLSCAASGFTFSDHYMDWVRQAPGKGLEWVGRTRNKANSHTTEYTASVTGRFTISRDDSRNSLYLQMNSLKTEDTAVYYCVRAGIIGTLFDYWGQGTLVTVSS VL: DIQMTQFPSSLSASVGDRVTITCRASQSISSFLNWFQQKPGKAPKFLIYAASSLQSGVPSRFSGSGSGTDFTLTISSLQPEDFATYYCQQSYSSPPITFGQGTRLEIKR ?
Result: 1.77
